settings: 298 K; 101 kPa; Liquid; Pendant drop method
assay readout: interfacial tension (mN/m)
Hi! Could you send only the number? It should be in mN/m, unit omitted.

CCn1cc[n+](C)c1.O=S(=O)([N-]S(=O)(=O)C(F)(F)F)C(F)(F)F + CCCCCCCC    12.1
CCCCn1cc[n+](C)c1.O=S(=O)([O-])C(F)(F)F [1-butyl-3-methylimidazolium trifluoromethanesulfonate] + CCCCCCCCCC    10.67
CCn1cc[n+](C)c1.O=S(=O)([N-]S(=O)(=O)C(F)(F)F)C(F)(F)F + O    9.85
CCCC[n+]1ccn(C)c1.O=S(=O)([N-]S(=O)(=O)C(F)(F)F)C(F)(F)F + CCCCCC    7.64
CCCC[n+]1ccn(C)c1.O=S(=O)([N-]S(=O)(=O)C(F)(F)F)C(F)(F)F + CCCCCCCC    8.6

Problem: Recorded interfacial tension of CCCCn1cc[n+](C)c1.O=S(=O)([O-])C(F)(F)F [1-butyl-3-methylimidazolium trifluoromethanesulfonate] + CCCCCC , please.
Solution: 8.9

Problem: And the next one, CCCCCC[n+]1ccn(C)c1.O=S(=O)([N-]S(=O)(=O)C(F)(F)F)C(F)(F)F + CCCCCCCCCC ?
Solution: 6.47

====

settings: 298 K; 101 kPa; Liquid; Pendant drop method
So basically: is interfacial tension under 9 mN/m? Then 1. Not under? Then -1.

Would you please look over these solved cases?
CCCCn1cc[n+](C)c1.O=C([O-])C(F)(F)F [1-butyl-3-methylimidazolium trifluoroacetate] + CCCCCCCC    -1
CCCCCCCCn1cc[n+](C)c1.O=S(=O)([N-]S(=O)(=O)C(F)(F)F)C(F)(F)F + CCCCCCCCCC    1
CCCCCC[n+]1ccn(C)c1.O=S(=O)([N-]S(=O)(=O)C(F)(F)F)C(F)(F)F + O    -1
Cn1cc[n+](C)c1.O=S(=O)([N-]S(=O)(=O)C(F)(F)F)C(F)(F)F [1,3-dimethylimidazolium bis((trifluoromethyl)sulfonyl)amide] + O    1
CCCCn1cc[n+](C)c1.O=C([O-])C(F)(F)F [1-butyl-3-methylimidazolium trifluoroacetate] + CCCCCC    1

Shift focus to the following entry.
Problem: Identify whether the compound CCCCCCCCn1cc[n+](C)c1.O=S(=O)([N-]S(=O)(=O)C(F)(F)F)C(F)(F)F + O records interfacial tension below 9 mN/m.
Solution: -1

====

Below is a list of entries, each paired with its recorded interfacial tension value.
details: 313 K; 101 kPa; Liquid; Pendant drop method
A number alone suffices; assume mN/m.

Problem: Need interfacial tension of CCCCn1cc[n+](C)c1.O=S(=O)([O-])C(F)(F)F [1-butyl-3-methylimidazolium trifluoromethanesulfonate] + CCCCCCCC , thanks.
Solution: 9.59

Problem: Query CCCCCC[n+]1ccn(C)c1.O=S(=O)([N-]S(=O)(=O)C(F)(F)F)C(F)(F)F + O next
Solution: 14.01

Problem: Also, CCCCCC[n+]1ccn(C)c1.O=S(=O)([N-]S(=O)(=O)C(F)(F)F)C(F)(F)F + CCCCCCCC please.
Solution: 5.24

Problem: Subsequent entry: CCCCCC[n+]1ccn(C)c1.O=S(=O)([N-]S(=O)(=O)C(F)(F)F)C(F)(F)F + CCCCCCCCCC
Solution: 6.11

====

# interfacial tension listing for each entry below
conditions: 308 K; 101 kPa; Liquid; Pendant drop method
Numbers after ± are expanded uncertainties.

CCCC[n+]1ccn(C)c1.O=S(=O)([N-]S(=O)(=O)C(F)(F)F)C(F)(F)F + CCCCCCCC    8.25 ± 0.11 mN/m
CCCCCC[n+]1ccn(C)c1.O=S(=O)([N-]S(=O)(=O)C(F)(F)F)C(F)(F)F + O    14.17 ± 0.13 mN/m
CCCC[n+]1ccn(C)c1.O=S(=O)([N-]S(=O)(=O)C(F)(F)F)C(F)(F)F + CCCCCC    7.37 ± 0.16 mN/m
CCn1cc[n+](C)c1.O=S(=O)([N-]S(=O)(=O)C(F)(F)F)C(F)(F)F + CCCCCC    10.98 ± 0.22 mN/m
Cn1cc[n+](C)c1.O=S(=O)([N-]S(=O)(=O)C(F)(F)F)C(F)(F)F [1,3-dimethylimidazolium bis((trifluoromethyl)sulfonyl)amide] + O    7.49 ± 0.11 mN/m
CCn1cc[n+](C)c1.O=S(=O)([N-]S(=O)(=O)C(F)(F)F)C(F)(F)F + CCCCCCCCCC    12.52 ± 0.14 mN/m

Problem: Item CCCCn1cc[n+](C)c1.O=C([O-])C(F)(F)F [1-butyl-3-methylimidazolium trifluoroacetate] + CCCCCCCCCC has what recorded interfacial tension?
Solution: 10.16 ± 0.13 mN/m

Problem: Let us now turn to CCn1cc[n+](C)c1.O=S(=O)([N-]S(=O)(=O)C(F)(F)F)C(F)(F)F + CCCCCCCC
Solution: 11.7 ± 0.12 mN/m

====

# interfacial tension values compiled below
conditions: 308 K; 101 kPa; Liquid; Pendant drop method
Numbers only here, please. The scale is mN/m.

Below are worked cases with known answers.
CCCCn1cc[n+](C)c1.O=S(=O)([O-])C(F)(F)F [1-butyl-3-methylimidazolium trifluoromethanesulfonate] + CCCCCCCCCC    10.44
CCCCCC[n+]1ccn(C)c1.O=S(=O)([N-]S(=O)(=O)C(F)(F)F)C(F)(F)F + CCCCCCCC    5.36
CCCCCCCCCCn1cc[n+](C)c1.O=S(=O)([N-]S(=O)(=O)C(F)(F)F)C(F)(F)F + O    16.75

Turning now to a further compound:
Problem: Could you tell me which interfacial tension is on file for CCCCCCCCn1cc[n+](C)c1.O=S(=O)([N-]S(=O)(=O)C(F)(F)F)C(F)(F)F + CCCCCC ?
Solution: 2.95

====

As shown below, each of these compounds has a reported interfacial tension value.
details: 293 K; 101 kPa; Liquid; Pendant drop method
Give just the number in mN/m; leave the unit off.

CCCCCCCCn1cc[n+](C)c1.O=S(=O)([N-]S(=O)(=O)C(F)(F)F)C(F)(F)F + CCCCCCCC    3.76
CCCCn1cc[n+](C)c1.O=C([O-])C(F)(F)F [1-butyl-3-methylimidazolium trifluoroacetate] + CCCCCCCCCC    10.52
CCn1cc[n+](C)c1.O=S(=O)([N-]S(=O)(=O)C(F)(F)F)C(F)(F)F + CCCCCC    11.36
CCn1cc[n+](C)c1.O=S(=O)([N-]S(=O)(=O)C(F)(F)F)C(F)(F)F + O    10.04
CCCCn1cc[n+](C)c1.O=C([O-])C(F)(F)F [1-butyl-3-methylimidazolium trifluoroacetate] + CCCCCCCC    9.38

Problem: // returns reported interfacial tension for input CCCC[n+]1ccn(C)c1.O=S(=O)([N-]S(=O)(=O)C(F)(F)F)C(F)(F)F + O
Solution: 13.69

Problem: Try this compound too: CCCCCC[n+]1ccn(C)c1.O=S(=O)([N-]S(=O)(=O)C(F)(F)F)C(F)(F)F + CCCCCC
Solution: 5.19

Problem: Request: CCCC[n+]1ccn(C)c1.O=S(=O)([N-]S(=O)(=O)C(F)(F)F)C(F)(F)F + CCCCCCCC
Solution: 8.78

====

details: 303 K; 101 kPa; Liquid; Pendant drop method
assay readout: interfacial tension (mN/m)
Kindly provide the numeric value in mN/m only, without the unit symbol.

Sample records with interfacial tension:
CCn1cc[n+](C)c1.O=S(=O)([N-]S(=O)(=O)C(F)(F)F)C(F)(F)F + CCCCCCCC    11.84
CCCCCCCCCCn1cc[n+](C)c1.O=S(=O)([N-]S(=O)(=O)C(F)(F)F)C(F)(F)F + O    17.09
CCCCCC[n+]1ccn(C)c1.O=S(=O)([N-]S(=O)(=O)C(F)(F)F)C(F)(F)F + CCCCCCCC    5.5
CCCCCC[n+]1ccn(C)c1.O=S(=O)([N-]S(=O)(=O)C(F)(F)F)C(F)(F)F + CCCCCCCCCC    6.36
Cn1cc[n+](C)c1.O=S(=O)([N-]S(=O)(=O)C(F)(F)F)C(F)(F)F [1,3-dimethylimidazolium bis((trifluoromethyl)sulfonyl)amide] + O    7.83
CCCCn1cc[n+](C)c1.O=S(=O)([O-])C(F)(F)F [1-butyl-3-methylimidazolium trifluoromethanesulfonate] + CCCCCCCC    9.79

Problem: Recorded interfacial tension for CCn1cc[n+](C)c1.O=S(=O)([N-]S(=O)(=O)C(F)(F)F)C(F)(F)F + CCCCCCCCCC , please?
Solution: 12.64

Problem: Next record, please: CCn1cc[n+](C)c1.O=S(=O)([N-]S(=O)(=O)C(F)(F)F)C(F)(F)F + CCCCCC
Solution: 11.12
